Reported IC50 by item:
Target: hERG channel (Homo sapiens, UniProt Q12809)
Sequence (Q12809 whole entry): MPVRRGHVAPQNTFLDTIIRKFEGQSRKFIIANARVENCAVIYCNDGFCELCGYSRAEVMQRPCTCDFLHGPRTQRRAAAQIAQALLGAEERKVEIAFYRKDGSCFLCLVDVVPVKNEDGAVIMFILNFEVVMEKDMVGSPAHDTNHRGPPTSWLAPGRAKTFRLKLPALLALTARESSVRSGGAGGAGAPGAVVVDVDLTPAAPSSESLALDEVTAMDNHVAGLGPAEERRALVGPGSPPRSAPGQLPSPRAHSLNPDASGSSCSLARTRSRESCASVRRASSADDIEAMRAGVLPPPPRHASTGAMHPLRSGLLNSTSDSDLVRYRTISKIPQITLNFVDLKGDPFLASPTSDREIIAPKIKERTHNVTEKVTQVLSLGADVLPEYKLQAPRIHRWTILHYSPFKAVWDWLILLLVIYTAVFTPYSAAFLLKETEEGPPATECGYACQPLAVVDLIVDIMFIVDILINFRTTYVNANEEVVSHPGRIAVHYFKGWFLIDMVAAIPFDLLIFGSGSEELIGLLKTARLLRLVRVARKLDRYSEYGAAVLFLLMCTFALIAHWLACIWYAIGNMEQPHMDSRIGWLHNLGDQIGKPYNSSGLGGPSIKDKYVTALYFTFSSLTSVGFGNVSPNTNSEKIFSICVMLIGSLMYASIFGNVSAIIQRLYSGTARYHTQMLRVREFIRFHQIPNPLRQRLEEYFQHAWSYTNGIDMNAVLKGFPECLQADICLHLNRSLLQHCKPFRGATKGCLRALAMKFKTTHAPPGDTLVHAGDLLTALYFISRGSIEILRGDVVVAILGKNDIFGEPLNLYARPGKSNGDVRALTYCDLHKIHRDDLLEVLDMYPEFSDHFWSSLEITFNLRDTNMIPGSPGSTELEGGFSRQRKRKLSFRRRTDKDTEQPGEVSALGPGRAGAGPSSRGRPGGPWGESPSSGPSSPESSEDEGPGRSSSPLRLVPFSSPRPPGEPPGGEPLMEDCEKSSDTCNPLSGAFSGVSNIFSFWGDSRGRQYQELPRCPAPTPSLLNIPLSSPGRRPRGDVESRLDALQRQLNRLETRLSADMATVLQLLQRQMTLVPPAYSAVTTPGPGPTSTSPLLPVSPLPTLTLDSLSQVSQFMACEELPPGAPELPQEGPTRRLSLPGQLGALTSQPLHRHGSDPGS
Test: Patch clamp assay to test the effect of compound on hERG channel
Details: manual patch clamp, HEK 293 cells expressed with hERG, concentration for half maximum effect
Description: 10 mL extracellular solution was used to dilute the stock solution, making the final concentrations of test compound were 0.3 μM, 1 μM, 3 μM, 10 μM and 30 μM. The solubility of compound was visually observed. […] The peak tail of hERG was generated by applying 2-sec depolarizing every 12 sec steps from a holding potential of −80 mV, the peak of tail currents were measured at a 5-sec repolarizing pulse at −50 mV. hERG peak tail currents were directly measured from a 5 sec repolarization pulse at −50 mV. […]

molecule | scaleUnit | IC50
N[C@@H]1c2ccccc2CC12CCN(c1nc3[nH]nc(C4(c5csnn5)CC4)c3c(=O)[nH]1)CC2 [Example 240] | µM | 17.1
N[C@@H]1c2ccccc2CC12CCN(c1nc3[nH]nc(C4(c5cccc(-n6cccn6)c5)CC4)c3c(=O)[nH]1)CC2 [Example 38] | µM | 14.2
N[C@@H]1c2ccccc2CC12CCN(c1nc3[nH]nc([C@H]4C[C@@H]4c4ccccc4)c3c(=O)[nH]1)CC2 [Example 185] | µM | 0.59
N[C@@H]1c2ccccc2CC12CCN(c1nc3[nH]nc(C4(c5ccc6c(c5)OCO6)CC4)c3c(=O)[nH]1)CC2 [Example 34] | µM | 6.9

###

Below is a list of entries, each paired with its recorded CLint Rat value.
Assay: In vitro metabolic stability in rat liver microsome
Type: in vitro ADME
Details: rat liver microsomes
outcomeMeasure: CLint Rat (μL/min/mg proteins)

compound | recordedNumber
N[C@@H]1c2ccccc2CC12CCN(c1nc3[nH]nc(C4(c5ccccc5)CC4)c3c(=O)[nH]1)CC2 | 17.4
Cn1c(N2CCC3(CC2)Cc2ccccc2[C@H]3N)nc2[nH]nc(C3(c4ccccc4)CC3)c2c1=O | 34.7
N[C@@H]1c2ccccc2CC12CCN(c1nc3[nH]nc(C4(Cc5ccccc5)CC4)c3c(=O)[nH]1)CC2 | 102.0
N[C@@H]1c2ccccc2CC12CCN(c1nc3[nH]nc(C4(c5cccc(F)c5)CC4)c3c(=O)[nH]1)CC2 | 11.2
N[C@@H]1c2ccccc2CC12CCN(c1nc3[nH]nc(C4(c5ccc(C(F)(F)F)cc5)CC4)c3c(=O)[nH]1)CC2 | 12.4
N[C@@H]1c2ccccc2CC12CCN(c1nc3[nH]nc(C4(c5ccccc5)CC4(F)F)c3c(=O)[nH]1)CC2 (stereo partly shown) | 10.5
N[C@@H]1c2ccccc2CC12CCN(c1nc3[nH]nc(C4(c5ccc(F)cc5)CC4)c3c(=O)[nH]1)CC2 | 6.6

###

Target: SHP2 (Homo sapiens, UniProt Q06124)
Sequence (Q06124 whole entry): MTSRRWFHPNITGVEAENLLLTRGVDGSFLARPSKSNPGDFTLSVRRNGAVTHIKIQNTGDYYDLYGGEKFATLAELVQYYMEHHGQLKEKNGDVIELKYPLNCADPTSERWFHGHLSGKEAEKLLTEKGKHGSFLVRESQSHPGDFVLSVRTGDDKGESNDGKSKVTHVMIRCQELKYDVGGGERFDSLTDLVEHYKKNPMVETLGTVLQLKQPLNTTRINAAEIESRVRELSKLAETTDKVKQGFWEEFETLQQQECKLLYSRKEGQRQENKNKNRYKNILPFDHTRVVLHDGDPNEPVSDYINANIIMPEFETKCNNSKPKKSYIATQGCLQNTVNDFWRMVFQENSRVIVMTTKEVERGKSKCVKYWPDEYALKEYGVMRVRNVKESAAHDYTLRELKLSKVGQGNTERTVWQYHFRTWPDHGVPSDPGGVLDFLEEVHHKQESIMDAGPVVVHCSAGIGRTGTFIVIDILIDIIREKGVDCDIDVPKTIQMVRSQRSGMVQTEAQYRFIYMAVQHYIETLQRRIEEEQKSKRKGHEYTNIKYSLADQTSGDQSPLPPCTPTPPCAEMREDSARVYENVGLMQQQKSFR
Assay: SHP2 allosteric inhibitor enzyme activity assay (DiFMUP fluorescence)
Assay type: biochemical
Settings: numeric values
Method: SHP2 is activated by the binding of a bis-tyrosyl-phosphorylated peptide to its Src homologous 2 (SH2) domain. […] The catalytic activity of SHP2 was monitored using the alternative DiFMUP in a rapid fluorescence assay format. […] The dose-response curve is fitted with GraphPad Prism software and IC50 was calculated by the “log[inhibitor] vs. response-variable slope” program.

molecule | IC50, nM
N[C@@H]1c2ccccc2CC12CCN(c1nc3[nH]nc(C4(c5cccc(F)c5)CC4)c3c(=O)[nH]1)CC2 [Example 6] | 0.62
N[C@@H]1c2ccccc2CC12CCN(c1nc3[nH]nc(C4=CCCCc5ccccc54)c3c(=O)[nH]1)CC2 [Example 125] | 1.6
N[C@@H]1c2ccccc2CC12CCN(c1nc3[nH]nc(C4=CCCc5nc(Cl)ccc54)c3c(=O)[nH]1)CC2 [Example 139] | 1.6
N[C@@H]1c2ccccc2CC12CCN(c1nc3[nH]nc(C4=CCOc5c(F)cccc54)c3c(=O)[nH]1)CC2 [Example 124] | 0.48
